# Tested on: NQO1 specific enzyme activity in BEAS-2B cells
# TEST_DESCRIPTION: BEAS-2B NQO1 MTT Assay
# Assay type: cell-based
# CONDITION_PARAMETERS: Homo sapiens, BEAS-2B, 48 h, NQO1 specific activity induction
pEC50: −log10 of the molar value. Where a name gives a salt, the structure may show the parent alone.
MEASURE_NAME: pEC50

>>> result("CCCC1CCCCN1C(=O)[C@H]1CCC[C@@H](c2cccc(-n3ncc(C(=O)O)c3C3CC3)c2)C1 (mixture of isomers) [Example 5]")
"5.00 to 6.00"
>>> result("Cn1cc([C@@H]2C[C@H]2c2c(C(=O)O)cnn2-c2cccc(C3CCCN(S(=O)(=O)c4ccccc4)C3)c2)nn1 (stereo partly drawn) [Example 30]")
"5.00 to 6.00"
>>> result("Cn1cc([C@@H]2C[C@H]2c2c(C(=O)O)cnn2-c2cccc(C3CCCN(CCc4ccccc4)C3)c2)nn1 (stereo partly drawn) [Example 29, Hydrochloride]")
"5.00 to 6.00"
>>> result("CCCCC1CCCN1C(=O)C1CCCC(c2cccc(-n3ncc(C(=O)O)c3C3CC3)c2)C1 (racemic) [Example 8c]")
"6.00 to 7.00"

Please go through the list and note pEC50 for each compound.
1. Cn1cc([C@@H]2C[C@H]2c2c(C(=O)O)cnn2-c2cccc(C3CCCN(C(=O)CC4CCCCC4)C3)c2)nn1 (stereo partly drawn) [Example 31]
2. O=C(O)c1cnn(-c2cccc(C3CCC(n4ncc5c4CCC5)C3)c2)c1C1CC1 (mixture of isomers) [Example 10]

1. 6.00 to 7.00
2. 5.00 to 6.00

###

# TARGET_DESC: NRF2/Keap1 (Homo sapiens, UniProt Q14145)
# Construct: full length NRF2 protein and full length Keap1 protein (Keap1 exists a dimer) are used
# Sequence (Q14145 whole entry): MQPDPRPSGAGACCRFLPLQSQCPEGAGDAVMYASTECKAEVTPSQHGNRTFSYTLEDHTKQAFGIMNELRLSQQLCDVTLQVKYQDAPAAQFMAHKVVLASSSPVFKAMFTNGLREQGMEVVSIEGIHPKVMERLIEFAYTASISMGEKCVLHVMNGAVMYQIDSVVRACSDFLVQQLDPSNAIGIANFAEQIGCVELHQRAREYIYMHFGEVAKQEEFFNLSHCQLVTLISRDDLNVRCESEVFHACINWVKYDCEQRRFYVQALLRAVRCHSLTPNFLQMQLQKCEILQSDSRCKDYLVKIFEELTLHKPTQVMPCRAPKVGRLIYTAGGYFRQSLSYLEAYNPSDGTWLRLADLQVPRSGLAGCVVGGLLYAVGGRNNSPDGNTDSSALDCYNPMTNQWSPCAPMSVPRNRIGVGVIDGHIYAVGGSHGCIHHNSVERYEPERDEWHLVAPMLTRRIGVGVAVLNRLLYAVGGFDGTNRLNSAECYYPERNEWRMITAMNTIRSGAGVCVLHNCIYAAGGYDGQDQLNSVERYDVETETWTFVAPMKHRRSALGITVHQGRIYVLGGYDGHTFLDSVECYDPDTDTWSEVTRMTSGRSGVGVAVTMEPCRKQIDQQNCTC
# TEST_DESCRIPTION: NRF2-Keap1 TR-FRET Assay (full length NRF2 and full length Keap1)
# Type: binding
# CONDITION_PARAMETERS: 25 nM Keap1-FlagHis, 50 nM biotin-NRF2 added
# Text: In the NRF2-Keap1 TR-FRET (time-resolved fluorescence resonance energy transfer) assay, full length NRF2 protein and full length Keap1 protein (Keap1 exists a dimer) are used. The assay detects the ability of compound to displace the binding of FlagHis-tagged Keap1 with biotinylated, Avi-tagged NRF2 protein. […]
Please go through the items and note down their IC50.

Example results:
>>> result("Cn1cc(C2CC2c2c(C(=O)O)cnn2-c2cccc([C@@H]3CCC[C@H](n4ncc5c4C(C)(C)CC5)C3)c2)nn1 (some centres unmarked)")
"0.01 to 0.1 µM"
>>> result("O=C(O)c1cnn(-c2cccc(C3CCCC(n4ncc5c4CCCC5)C3)c2)c1C1CC1 (racemic)")
"1 to 10 µM"
>>> result("O=C(O)c1cnn(-c2cccc(C3CCCC(C(=O)N4CCCC4C4CCC4)C3)c2)c1C1CC1 (racemic)")
"0.1 to 1 µM"
>>> result("CCCCC1CCCC1N(C)C(=O)C1CCCC(c2cccc(-n3ncc(C(=O)O)c3C3CC3)c2)C1 (centres unmarked)")
"1 to 10 µM"
>>> result("CCCCC1CCc2cnn([C@@H]3CCC[C@@H](c4cccc(-n5ncc(C(=O)O)c5C5CC5)c4)C3)c21 (stereo in doubt) [Example 37]")
"1 to 10 µM"
>>> result("CCCCC1CCc2cnn([C@@H]3CCC[C@@H](c4cccc(-n5ncc(C(=O)O)c5C5CC5)c4)C3)c21 (some centres unmarked) [Example 38]")
"10 to 100 µM"

Please go through the list and note IC50 for each compound.
1. Cn1cc(C2CC2c2c(C(=O)O)cnn2-c2cccc([C@H]3CCC[C@H](n4ncc5c4C(C)(C)CC5)C3)c2)nn1 (some centres unmarked)
2. CCOC[C@@H]1CCCN1C(=O)C1CCCC(c2cccc(-n3ncc(C(=O)O)c3C3CC3)c2)C1 (single isomer, unassigned) [Example 18g]
3. O=C(O)c1cnn(-c2cccc(C3=CC(C(=O)N4CCCCCC4)CCC3)c2)c1C1CC1 (centres unmarked)

0.1 to 1 µM
0.01 to 0.1 µM
1 to 10 µM
